Each item that follows carries a reported GI50.
System: MDA-N
assayName: NCI tumour cell line growth inhibition, 48 h
The source made the active and inactive calls. No stated cut-off is given here; in the data, active = GI50 up to about 1.1 µM and inactive = higher.

Solved cases below.
1. COc1ccc(NC(=O)CC(=O)N2N=C(N3CCCCC3)CC2c2ccccc2)cc1 (centres undefined): > 100 µM (inactive)
2. CN1C(=O)C(/C=N/NC(=O)c2cccnc2)C(N)N(C)C1=O (centres undefined): > 100 µM (inactive)
3. CCn1nc(-c2ccccc2)c2c1N(C)c1ccccc1-n1c(-c3ccccc3)nnc1-2: 15.1 µM (inactive)
4. Nc1cc2c3c(c1)Oc1cc(N)cc4c1C3c1c(cc(N)cc1O4)O2: 17.8 µM (inactive)
5. S=C1NC2=C(COC/C2=C\c2ccccc2Cl)C(c2ccccc2Cl)N1 (centres undefined): 32.7 µM (inactive)

Value of measured GI50 for the entry O=C(Nn1c(-c2cccs2)nc2ccc(I)cc2c1=O)c1ccccc1 : 43.9 µM (inactive)

Value of measured GI50 for the entry CCOC(=O)c1c(N2CCOCC2)[nH]c(=O)c(C(c2ccco2)c2c(O)c(C(=O)OCC)c(N3CCOCC3)[nH]c2=O)c1O : > 100 µM (inactive)

Value of measured GI50 for the entry CCCCCCCC(CC(=O)NC(CO)C(=O)NC(CO)CC(C)C)OC(=O)CC(CCCCCCC)OC(=O)CC(CCCCCCC)OC1OC(C)C(O)C(OC2OC(C)C(O)C(O)C2OC(C)=O)C1O (centres undefined) : 3.46 µM (inactive)

Value of measured GI50 for the entry CC12CC(=O)Nc3ccccc3N1C(c1ccccc1)=NO2 (centres undefined) : > 100 µM (inactive)

###

Tested on: MDA-MB-231
assayName: NCI tumour cell line growth inhibition, 48 h
Activity calls are given as the source filed them. No stated cut-off is given here; in the data, active = GI50 up to about 1.1 µM and inactive = higher.
parameterMeasured: GI50

1) Cn1c2ccccc2n2c3ncccc3c(=O)c(C#N)c12: 17.9 µM (inactive)

Value of measured GI50 for the entry C[C@]12CCC(=O)C=C1CC[C@@H]1[C@@H]2[C@@H](O)C[C@@]2(C)[C@H]1CC[C@]2(O)C(=O)CO [HYDROCORTISONE] : > 100 µM (inactive)

Value of measured GI50 for the entry N#CC(NNC(=O)Cc1ccccc1)c1ccccc1O (stereo not given) : 8.2 µM (inactive)

Value of measured GI50 for the entry COc1ccc(OC)c(CC(=O)c2ccc(O)c(C(=O)NCCc3ccc(F)cc3)c2)c1 : 4.74 µM (inactive)

Value of measured GI50 for the entry CCN(CCCN(CC)C(=O)N[C@@H](Cc1ccccc1)C(=O)NC)C(=O)N[C@@H](Cc1ccccc1)C(=O)NC : > 100 µM (inactive)

Value of measured GI50 for the entry O=C1CCC(Cc2ccc(Cl)cc2Cl)C(=O)N1 (stereo not given) : 51.8 µM (inactive)

Value of measured GI50 for the entry CCOC(=O)/C(C#N)=C/c1ccnc2ccccc12 : 83.9 µM (inactive)

Value of measured GI50 for the entry O=C(CC(C(=O)c1ccsc1)c1cccs1)c1ccccc1 (stereo not given) : 56.8 µM (inactive)

Value of measured GI50 for the entry CCc1ccc(/C=C\c2cc(OC)c(OC)c(OC)c2)cc1 : 0.144 µM (active)

Value of measured GI50 for the entry O=c1c2c(-c3ccccc3)onc2n(-c2ccccc2)c(=O)n1-c1ccccc1 : > 100 µM (inactive)

###

Each item that follows carries a reported GI50.
System: T47D
assayName: NCI tumour cell line growth inhibition, 48 h
The source made the active and inactive calls. Rule as the data show it: active = GI50 up to about 1.1 µM and inactive = higher.

Value of measured GI50 for the entry CCCCCCCC(CC(=O)NC(CO)C(=O)NC(CO)CC(C)C)OC(=O)CC(CCCCCCC)OC(=O)CC(CCCCCCC)OC1OC(C)C(O)C(OC2OC(C)C(O)C(O)C2OC(C)=O)C1O (centres undefined) : 6.52 µM (inactive)

Value of measured GI50 for the entry CCOC(=O)C1=C(C)NC(=O)NC1c1ccc(N(CCCl)CCCl)cc1Cl (centres undefined) : 5.77 µM (inactive)

Value of measured GI50 for the entry NS(=O)(=O)c1ccc(NC(=S)NC=C2C(=O)c3ccccc3C2=O)cc1 : 30.8 µM (inactive)

Value of measured GI50 for the entry O=C(c1ccc([N+](=O)[O-])cc1)C(Br)C(Br)c1ccnc2ccccc12 (centres undefined) : 5.96 µM (inactive)
